The values you see were collected from patent US8017612B2.

- system: HCV polymerase (NS5B) type 1b (Hepatitis C virus genotype 1b, UniProt P26663)
- Construct: a region encoding NS5B (J Virol 1991 March, 65(3), 1105-13, 544 amino acids after deletion of 47 amino acids on the C-terminal); 6xHis (C); made in house; host or cells: Escherichia coli
- Sequence (P26663 2420-2963): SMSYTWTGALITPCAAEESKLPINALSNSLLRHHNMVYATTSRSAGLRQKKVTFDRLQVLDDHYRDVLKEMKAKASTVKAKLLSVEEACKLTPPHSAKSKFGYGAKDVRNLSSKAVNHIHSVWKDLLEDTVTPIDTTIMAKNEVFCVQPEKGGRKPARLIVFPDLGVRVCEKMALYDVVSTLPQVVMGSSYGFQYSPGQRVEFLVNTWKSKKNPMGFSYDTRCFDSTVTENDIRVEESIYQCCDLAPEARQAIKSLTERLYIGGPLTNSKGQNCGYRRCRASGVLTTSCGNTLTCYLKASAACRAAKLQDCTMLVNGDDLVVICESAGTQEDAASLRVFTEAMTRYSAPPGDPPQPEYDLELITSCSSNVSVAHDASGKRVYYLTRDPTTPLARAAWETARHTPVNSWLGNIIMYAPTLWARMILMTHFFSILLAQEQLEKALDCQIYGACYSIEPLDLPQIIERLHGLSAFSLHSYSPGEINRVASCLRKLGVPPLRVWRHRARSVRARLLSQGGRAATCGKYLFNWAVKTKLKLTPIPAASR
- protocol notes: Assay of enzyme (HCV polymerase) inhibitory activity, type 1b enzyme
- Format: biochemical, HCV BK strain (type 1b)
- study conditions: HCV polymerase inhibitory activity (IC50), 1b, type 1b enzyme 0.5 μg/ml, 25° C., 60 min
pIC50: −log10 of the molar value.
readout name: pIC50

• Cc1nc(N2CCN(S(=O)(=O)c3ccc(OC(F)(F)F)cc3)[C@@H](C(=O)NCc3ccc(C(C)C)cc3)C2)sc1C(=O)NCC(=O)OC(C)(C)C = > 7.00
• COC(=O)Cc1cc(S(=O)(=O)N2CCN(C(C)=O)C[C@@H]2C(=O)NCc2ccc(C(C)C)cc2)ccc1OC = < 6.00
• COc1ccc(CNC(=O)C2CN(C(C)=O)CCN2S(=O)(=O)c2ccc(C(C)C)cc2)c(OC)c1 (stereo not drawn) = < 6.00
